Reference source: patent US10723741B1

- Tested on: Staphylococcus aureus NRS384 (MRSA)
- experimentNotes: Broth microdilution MIC, S. aureus NRS384 (MRSA)
- Format: cell-based
- conditionLabel: Staphylococcus aureus, 20 h, read-out: MIC NRS 384 (MRSA)
Structures can show the parent of a compound that is named as a salt.
Below, each entry is listed alongside its reported MIC.
Kindly provide the numeric value in µg/mL only, without the unit symbol.

// below: answered compounds
>  <compound>
CC(C)(C)OC(=O)N1C[C@H](O)C[C@H]1C(=O)N1CCC(n2ncc3nc(NCc4ccc(Cl)c(Cl)c4)[nH]c(=O)c32)CC1 [Compound 275]

>  <tgt>
Staphylococcus aureus NRS384 (MRSA)

>  <propertyName>
MIC

>  <reading>
32

$$$$
>  <compound>
COP(=O)(OC)OCCOCCn1ncc2nc(NCc3ccc(Cl)c(Cl)c3)[nH]c(=O)c21 [Compound 297]

>  <tgt>
Staphylococcus aureus NRS384 (MRSA)

>  <propertyName>
MIC

>  <reading>
32

$$$$

Could you now consider this next compound?
Which MIC value is on record for O=c1[nH]c(NCc2ccc(Cl)c(Cl)c2)nc2cnn(C3CCNC3)c12 (stereo not shown) [Compound 216, TFA salt] ?
16

---

- Test system: Enterococcus faecalis ATCC 29212
- experimentNotes: Broth microdilution MIC, E. faecalis ATCC 29212
- Type: cell-based
- conditionLabel: ATCC29212, broth microdilution, 37° C., 20 hours, read-out: MIC E. faecalis ATCC 29212
Reported MIC values for a set of compounds

Field: example entries. Status: answers known.
>  <compound>
Cn1ncc2nc(NCc3nc(Cl)c(Cl)[nH]3)[nH]c(=O)c21

>  <reading>
> 64 µg/mL

$$$$
>  <compound>
Cn1ncc2nc(NCc3cc[nH]n3)[nH]c(=O)c21

>  <reading>
> 64 µg/mL

$$$$
>  <compound>
O=c1[nH]c(NCc2ccc(Cl)c(Cl)c2)nc2cn(CC3CCC3)nc12

>  <reading>
> 64 µg/mL

$$$$
>  <compound>
O=c1c2c(cnn2CCOCCO)nc(NCc2ccc(Cl)c(Cl)c2)n1COP(=O)(O)O

>  <reading>
> 64 µg/mL

$$$$
>  <compound>
Cl.O=C(O)c1ccc(OCCn2ncc3nc(NCc4ccc(Cl)c(Cl)c4)[nH]c(=O)c32)cn1

>  <reading>
> 64 µg/mL

$$$$
>  <compound>
O=c1[nH]c(NCc2ccc(Cl)c(Cl)c2)nc2cnn(C[C@H]3NC[C@H](O)[C@@H](O)[C@@H]3O)c12

>  <reading>
> 64 µg/mL

$$$$

Quick check: MIC on Enterococcus faecalis ATCC 29212, item Cn1ncc2nc(Nc3ccccc3)[nH]c(=O)c21 ?
> 64 µg/mL

Field entry: CC(C(=O)O)n1ncc2nc(NCc3ccc(Cl)c(Cl)c3)[nH]c(=O)c21 (stereo not drawn)
> 64 µg/mL

Moving on to the next compound: O=c1[nH]c(NCc2ccc(Cl)c(Cl)c2)nc2cnn(CCCc3nnn[nH]3)c12
> 64 µg/mL

Param item: CC(C)n1cc2nc(NCc3ccc(Cl)c(Cl)c3)[nH]c(=O)c2n1
> 64 µg/mL

Now consider CC(C)(C)OC(=O)N1CCN(CCOCCn2ncc3nc(NCc4ccc(Cl)c(Cl)c4)[nH]c(=O)c32)CC1 and answer again.
> 64 µg/mL

Similarly, Cl.Cl.O=c1[nH]c(NCc2ccc(Cl)c(Cl)c2)nc2cnn(C3CCN(c4ccccn4)CC3)c12 ?
> 64 µg/mL

---

// MIC lookup, one value per entry
- Tested on: Enterococcus faecalis ATCC 29212
- experimentNotes: Broth microdilution MIC, E. faecalis ATCC 29212
- Format: cell-based
- conditionLabel: ATCC29212, broth microdilution, 37° C., 20 hours, read-out: MIC E. faecalis ATCC 29212
- Description: Bacteria tested are Staphylococcus aureus NRS384 (a methicillin-resistant Staphylococcus aureus, MRSA), Staphylococcus aureus ATCC 29213 (a methicillin-sensitive Staphylococcus aureus, MSSA), Streptococcus pneumoniae ATCC 49619, Enterococcus faecalis ATCC 29212, Enterococcus faecium ATCC 700221 (a vancomycin-resistant enterococcus, VRE), Bacillus subtilis ATCC 6633, and Escherichia coli ATCC 25922. […]

>  <compound>
CCc1[nH]c(CNc2nc3cnn(C)c3c(=O)[nH]2)nc1Cl.Cl

>  <propertyName>
MIC

>  <reading>
> 64 µg/mL

$$$$
>  <compound>
Cn1ncc2nc(NCc3cnco3)[nH]c(=O)c21

>  <propertyName>
MIC

>  <reading>
> 64 µg/mL

$$$$
>  <compound>
CC(C)OC(=O)CCCn1ncc2nc(NCc3ccc(Cl)c(Cl)c3)[nH]c(=O)c21

>  <propertyName>
MIC

>  <reading>
> 64 µg/mL

$$$$
>  <compound>
CC(C)(C)OC(=O)N1CCC(n2ncc3nc(NCc4ccc(Cl)c(Cl)c4)[nH]c(=O)c32)C1 (centres unmarked)

>  <propertyName>
MIC

>  <reading>
> 64 µg/mL

$$$$
>  <compound>
Cn1nc(C2CCCO2)c2nc(NCc3ccc(Cl)c(Cl)c3)[nH]c(=O)c21 (centres unmarked)

>  <propertyName>
MIC

>  <reading>
> 64 µg/mL

$$$$
>  <compound>
CC(C)OC(=O)CCCCn1ncc2nc(NCc3ccc(Cl)c(Cl)c3)[nH]c(=O)c21

>  <propertyName>
MIC

>  <reading>
> 64 µg/mL

$$$$
>  <compound>
Cn1nc(F)c2nc(NCc3ccc(Cl)c(Cl)c3)[nH]c(=O)c21

>  <propertyName>
MIC

>  <reading>
2 µg/mL

$$$$
>  <compound>
COc1ccncc1C(=O)N1CCC(n2ncc3nc(NCc4ccc(Cl)c(Cl)c4)[nH]c(=O)c32)CC1.Cl

>  <propertyName>
MIC

>  <reading>
4 µg/mL

$$$$
>  <compound>
Cl.O=C(c1ccncc1)N1CCC(n2nc(F)c3nc(NCc4ccc(F)c(F)c4)[nH]c(=O)c32)CC1

>  <propertyName>
MIC

>  <reading>
8 µg/mL

$$$$
>  <compound>
O=C(O)CCCCn1nc(F)c2nc(NCc3ccc(F)c(F)c3)[nH]c(=O)c21

>  <propertyName>
MIC

>  <reading>
32 µg/mL

$$$$

Value lookup for MIC; key = Cc1ccc(CNc2nc3cnn(C)c3c(=O)[nH]2)cc1Cl
8 µg/mL

# iterate: Cl.O=c1[nH]c(NCc2ccc(Cl)c(Cl)c2)nc2cnn(CC3(CO)CCNCC3)c12
64 µg/mL

Item: CCOC(=O)CCCCn1ncc2nc(NCc3ccc(Cl)c(Cl)c3)[nH]c(=O)c21
> 64 µg/mL

Now the same for Cl.O=C(c1nnc[nH]1)N1CCC(n2ncc3nc(NCc4ccc(Cl)c(Cl)c4)[nH]c(=O)c32)CC1
4 µg/mL

Could you do the same for Cc1noc(C)c1C(=O)N(C)CCn1ncc2nc(NCc3ccc(Cl)c(Cl)c3)[nH]c(=O)c21 , please?
32 µg/mL

Same read-out for Cl.Cl.O=c1[nH]c(NCc2ccc(Cl)c(Cl)c2)nc2cnn(CCOCCN3CCNCC3)c12 ?
64 µg/mL

Quick one: COCCn1nc(Cl)c2nc(NCc3ccc(Cl)c(Cl)c3)[nH]c(=O)c21
2 µg/mL

---

- Test system: Enterococcus faecalis ATCC 29212
- experimentNotes: Broth microdilution MIC, E. faecalis ATCC 29212
- Assay type: cell-based
- conditionLabel: ATCC29212, broth microdilution, 37° C., 20 hours, read-out: MIC E. faecalis ATCC 29212
propertyName: MIC (µg/mL)
Give the quantity in µg/mL, number only.

Example molecules with recorded MIC:
>  <molecule>
CCOC(=O)C1(Cn2ncc3nc(NCc4ccc(Cl)c(Cl)c4)[nH]c(=O)c32)CCNCC1.Cl

>  <tgt>
Enterococcus faecalis ATCC 29212

>  <unit>
µg/mL

>  <MIC>
32

$$$$
>  <molecule>
Cl.O=c1[nH]c(NCc2ccc(Cl)c(Cl)c2)nc2cnn(Cc3cnccn3)c12

>  <tgt>
Enterococcus faecalis ATCC 29212

>  <unit>
µg/mL

>  <MIC>
8

$$$$
>  <molecule>
COCCn1nc(F)c2nc(NCc3ccc(F)c(F)c3)[nH]c(=O)c21

>  <tgt>
Enterococcus faecalis ATCC 29212

>  <unit>
µg/mL

>  <MIC>
8

$$$$
>  <molecule>
COC(=O)COCCn1ncc2nc(NCc3ccc(Cl)c(Cl)c3)[nH]c(=O)c21

>  <tgt>
Enterococcus faecalis ATCC 29212

>  <unit>
µg/mL

>  <MIC>
8

$$$$

Look at this molecule and give its reported MIC. CN1CCCC(c2nc(Cn3ncc4nc(NCc5ccc(Cl)c(Cl)c5)[nH]c(=O)c43)co2)C1.Cl (stereo not shown)
16

Follow-up item: O=C(NCCn1ncc2nc(NCc3ccc(Cl)c(Cl)c3)[nH]c(=O)c21)c1cc(O)nnc1Cl
64

// next record O=c1[nH]c(NCc2ccc(Cl)c(Cl)c2)nc2cnn(CCOCCOCCO)c12
32

Repeat with CC(=O)OCCCCn1ncc2nc(NCc3ccc(Cl)c(Cl)c3)[nH]c(=O)c21
2

Proceed to Cc1ccncc1C(=O)N1CCC(n2ncc3nc(NCc4ccc(Cl)c(Cl)c4)[nH]c(=O)c32)CC1.Cl
4

O=C(O)CCCCn1ncc2nc(NCc3ccc(Cl)c(Cl)c3)[nH]c(=O)c21 ?
16
